B1: SMG5 (parent)
chain: TRKLSPGKKRCKDIKRLLVNFMYL

- Variants of: B1
- Measurement Protocol: protein stability index of a GFP-peptide fusion (GPS, HEK-293T) (PSI 1-6); higher = more stable;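 also: lentivirally expressed fusions sorted by FACS into six bins by GFP to DsRed ratio, PSI derived from sequencing read proportions per bin multiplied by bin number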
- Experimental Setup: c terminus: a fixed tail appended
# maps each entry to its protein stability index
Number only, no unit.

# count of solved cases: 3
Mutant Label: K8C
Measurement Type: protein stability index
Experimental Value: 3.19
--
Mutant Label: R16P
Measurement Type: protein stability index
Experimental Value: 2.24
--
Mutant Label: F21P
Measurement Type: protein stability index
Experimental Value: 1.6

stdin: Data request, read-out protein stability index, for S5T
stdout: 1.02

stdin: Thanks! And K12D ?
stdout: 1.41
